Attribution: ChEMBL document CHEMBL3600351

Listing of entries alongside the reported MIC50.
- System: Escherichia coli
- assayProcedure: Antibacterial activity against Escherichia coli ATCC 27856 assessed as inhibition of bacterial growth after 18 hrs by liquid microdilution method
- Assay type: functional
- setupConditions: ATCC 27856, 18 h
parameterMeasured: MIC50 (µg/mL)

[[record]]
querysmiles = "CC[C@H]1OC(=O)[C@H](C)[C@@H](O[C@H]2C[C@@](C)(OC)[C@@H](O)[C@H](C)O2)[C@H](C)[C@@H](O[C@@H]2O[C@H](C)C[C@H](N(C)C)[C@H]2O)[C@](C)(O)C[C@@H](C)CN(Cc2ccc(-c3cn(CCn4ccc5cc(F)ccc54)nn3)cc2)[C@H](C)[C@@H](O)[C@]1(C)O"
reportedmeasurement = 64

[[record]]
querysmiles = "CC[C@H]1OC(=O)[C@H](C)[C@@H](O[C@H]2C[C@@](C)(OC)[C@@H](O)[C@H](C)O2)[C@H](C)[C@@H](O[C@@H]2O[C@H](C)C[C@H](N(C)C)[C@H]2O)[C@](C)(O)C[C@@H](C)CN(CCCCc2cn(CCn3ccc4cc(Cl)ccc43)nn2)[C@H](C)[C@@H](O)[C@]1(C)O"
reportedmeasurement = 64


* * *

- Test system: Escherichia coli
- assayProcedure: Antibacterial activity against Escherichia coli ATCC 27856 assessed as inhibition of bacterial growth after 18 hrs by liquid microdilution method
- Format: functional
- setupConditions: ATCC 27856, 18 h
parameterMeasured: MIC50 (µg/mL)

[[record]]
compound = "CC[C@H]1OC(=O)[C@H](C)[C@@H](O[C@H]2C[C@@](C)(OC)[C@@H](O)[C@H](C)O2)[C@H](C)[C@@H](O[C@@H]2O[C@H](C)C[C@H](N(C)C)[C@H]2O)[C@](C)(O)C[C@@H](C)CN(CCCCc2cn(CCn3ccc4ccccc43)nn2)[C@H](C)[C@@H](O)[C@]1(C)O"
assayedsystem = "Escherichia coli"
parametermeasured = "MIC50"
unitdescriptor = "µg/mL"
reportedmeasurement = 64

[[record]]
compound = "CC[C@H]1OC(=O)[C@H](C)[C@@H](O[C@H]2C[C@@](C)(OC)[C@@H](O)[C@H](C)O2)[C@H](C)[C@@H](O[C@@H]2O[C@H](C)C[C@H](N(C)C)[C@H]2O)[C@](C)(O)C[C@@H](C)CN(CCCCc2cn(CCn3ccc4cc(OC)ccc43)nn2)[C@H](C)[C@@H](O)[C@]1(C)O"
assayedsystem = "Escherichia coli"
parametermeasured = "MIC50"
unitdescriptor = "µg/mL"
reportedmeasurement = 16

[[record]]
compound = "CC[C@H]1OC(=O)[C@H](C)[C@@H](O[C@H]2C[C@@](C)(OC)[C@@H](O)[C@H](C)O2)[C@H](C)[C@@H](O[C@@H]2O[C@H](C)C[C@H](N(C)C)[C@H]2O)[C@](C)(O)C[C@@H](C)CN(C)[C@H](C)[C@@H](O)[C@]1(C)O [AZITHROMYCIN]"
assayedsystem = "Escherichia coli"
parametermeasured = "MIC50"
unitdescriptor = "µg/mL"
reportedmeasurement = 4

[[record]]
compound = "CC[C@H]1OC(=O)[C@H](C)[C@@H](O[C@H]2C[C@@](C)(OC)[C@@H](O)[C@H](C)O2)[C@H](C)[C@@H](O[C@@H]2O[C@H](C)C[C@H](N(C)C)[C@H]2O)[C@](C)(O)C[C@@H](C)CN(CCCCc2cn(CCc3c[nH]c4ccccc34)nn2)[C@H](C)[C@@H](O)[C@]1(C)O"
assayedsystem = "Escherichia coli"
parametermeasured = "MIC50"
unitdescriptor = "µg/mL"
reportedmeasurement = 16

[[record]]
compound = "CC[C@H]1OC(=O)[C@H](C)[C@@H](O[C@H]2C[C@@](C)(OC)[C@@H](O)[C@H](C)O2)[C@H](C)[C@@H](O[C@@H]2O[C@H](C)C[C@H](N(C)C)[C@H]2O)[C@](C)(O)C[C@@H](C)CN(Cc2ccc(-c3cn(CCn4ccc5ccccc54)nn3)cc2)[C@H](C)[C@@H](O)[C@]1(C)O"
assayedsystem = "Escherichia coli"
parametermeasured = "MIC50"
unitdescriptor = "µg/mL"
reportedmeasurement = 64


* * *

Listing of entries alongside the reported MIC50.
- System: Escherichia coli
- assayProcedure: Antibacterial activity against Escherichia coli ATCC 27856 assessed as inhibition of bacterial growth after 18 hrs by liquid microdilution method
- Assay type: functional
- setupConditions: ATCC 27856, 18 h
parameterMeasured: MIC50 (µg/mL)

[[record]]
querysmiles = "CC[C@H]1OC(=O)[C@H](C)[C@@H](O[C@H]2C[C@@](C)(OC)[C@@H](O)[C@H](C)O2)[C@H](C)[C@@H](O[C@@H]2O[C@H](C)C[C@H](N(C)C)[C@H]2O)[C@](C)(O)C[C@@H](C)CN(CCCCc2cn(CCc3cn(C)c4ccccc34)nn2)[C@H](C)[C@@H](O)[C@]1(C)O"
parametermeasured = "MIC50"
reportedmeasurement = 128

[[record]]
querysmiles = "CC[C@H]1OC(=O)[C@H](C)[C@@H](O[C@H]2C[C@@](C)(OC)[C@@H](O)[C@H](C)O2)[C@H](C)[C@@H](O[C@@H]2O[C@H](C)C[C@H](N(C)C)[C@H]2O)[C@](C)(O)C[C@@H](C)CN(CCCCc2cn(CC)nn2)[C@H](C)[C@@H](O)[C@]1(C)O"
parametermeasured = "MIC50"
reportedmeasurement = 32


* * *

- Tested on: Escherichia coli
- assayProcedure: Antibacterial activity against Escherichia coli ATCC 27856 assessed as inhibition of bacterial growth after 18 hrs by liquid microdilution method
- Format: functional
- setupConditions: ATCC 27856, 18 h
parameterMeasured: MIC50 (µg/mL)

[[record]]
querysmiles = "CC[C@H]1OC(=O)[C@H](C)[C@@H](O[C@H]2C[C@@](C)(OC)[C@@H](O)[C@H](C)O2)[C@H](C)[C@@H](O[C@@H]2O[C@H](C)C[C@H](N(C)C)[C@H]2O)[C@](C)(O)C[C@@H](C)CN(CCCCc2cn(CCn3ccc4cc([N+](=O)[O-])ccc43)nn2)[C@H](C)[C@@H](O)[C@]1(C)O"
parametermeasured = "MIC50"
reportedmeasurement = 16

[[record]]
querysmiles = "CC[C@H]1OC(=O)[C@H](C)[C@@H](O[C@H]2C[C@@](C)(OC)[C@@H](O)[C@H](C)O2)[C@H](C)[C@@H](O[C@@H]2O[C@H](C)C[C@H](N(C)C)[C@H]2O)[C@](C)(O)C[C@@H](C)CN(CCCCc2cn(CCc3c[nH]c4ccc(Cl)cc34)nn2)[C@H](C)[C@@H](O)[C@]1(C)O"
parametermeasured = "MIC50"
reportedmeasurement = 32

